- SYSTEM: human mAChR M4 (Homo sapiens)
- Sequence (P08173 whole entry): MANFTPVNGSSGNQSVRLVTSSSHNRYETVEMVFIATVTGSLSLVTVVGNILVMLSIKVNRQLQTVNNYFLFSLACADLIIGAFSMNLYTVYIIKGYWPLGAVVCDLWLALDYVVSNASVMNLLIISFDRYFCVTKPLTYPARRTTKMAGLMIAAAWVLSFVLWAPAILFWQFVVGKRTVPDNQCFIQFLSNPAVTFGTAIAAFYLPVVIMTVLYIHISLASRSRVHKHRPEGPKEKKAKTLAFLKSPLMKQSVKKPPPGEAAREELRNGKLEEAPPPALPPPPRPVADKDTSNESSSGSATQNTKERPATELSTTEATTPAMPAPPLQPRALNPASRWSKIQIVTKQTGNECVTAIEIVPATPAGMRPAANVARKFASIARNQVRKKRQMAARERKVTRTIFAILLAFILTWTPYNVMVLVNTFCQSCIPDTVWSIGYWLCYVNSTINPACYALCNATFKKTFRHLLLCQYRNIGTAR
- PROCEDURE_DETAILS: mAChR M4 cell-based functional assay (calcium flux), human M4
- CONDITION: Human M4 EC50, CHO-K1 hM4-Gqi5 cells; calcium flux; increase in EC20 acetylcholine response
EXPERIMENTAL_READOUT: EC50 (nM)

| SMILES_NOTATION | SYSTEM | UNIT_SYMBOL | EC50 |
| --- | --- | --- | --- |
| Cc1nnc2sc3c(N4CC(F)(F)C4)ncnc3c2c1C | human mAChR M4 (Homo sapiens) | nM | 426 |
| Cc1nnc2sc3c(N4CCN(C5CC5)CC4)ncnc3c2c1C | human mAChR M4 (Homo sapiens) | nM | 616 |

A = Cc1nnc2sc3c(NC4CC4)ncnc3c2c1C
B = Cc1nnc2oc3c(NCc4ccc(C5(O)CCC5)cc4)ncnc3c2c1C
Given the two records A and B , choose the one whose EC50 value is lower. # reply format: chosen label
A
(A: 468 nM, B: 862 nM)
